molecular target: UniProt P51784; assay: log2 ratio of Biotin-Ahx-Ub-VS probe labelling (fragment/DMSO); higher = less target engagement (more negative = stronger competition), active = hit call of the paper (q ≤ 0.05, log2 ratio ≤ -1); conditions: compound concentration: 200 uM; treatment time: 3 h
Sequence (P51784 whole entry, the tested form may be a part): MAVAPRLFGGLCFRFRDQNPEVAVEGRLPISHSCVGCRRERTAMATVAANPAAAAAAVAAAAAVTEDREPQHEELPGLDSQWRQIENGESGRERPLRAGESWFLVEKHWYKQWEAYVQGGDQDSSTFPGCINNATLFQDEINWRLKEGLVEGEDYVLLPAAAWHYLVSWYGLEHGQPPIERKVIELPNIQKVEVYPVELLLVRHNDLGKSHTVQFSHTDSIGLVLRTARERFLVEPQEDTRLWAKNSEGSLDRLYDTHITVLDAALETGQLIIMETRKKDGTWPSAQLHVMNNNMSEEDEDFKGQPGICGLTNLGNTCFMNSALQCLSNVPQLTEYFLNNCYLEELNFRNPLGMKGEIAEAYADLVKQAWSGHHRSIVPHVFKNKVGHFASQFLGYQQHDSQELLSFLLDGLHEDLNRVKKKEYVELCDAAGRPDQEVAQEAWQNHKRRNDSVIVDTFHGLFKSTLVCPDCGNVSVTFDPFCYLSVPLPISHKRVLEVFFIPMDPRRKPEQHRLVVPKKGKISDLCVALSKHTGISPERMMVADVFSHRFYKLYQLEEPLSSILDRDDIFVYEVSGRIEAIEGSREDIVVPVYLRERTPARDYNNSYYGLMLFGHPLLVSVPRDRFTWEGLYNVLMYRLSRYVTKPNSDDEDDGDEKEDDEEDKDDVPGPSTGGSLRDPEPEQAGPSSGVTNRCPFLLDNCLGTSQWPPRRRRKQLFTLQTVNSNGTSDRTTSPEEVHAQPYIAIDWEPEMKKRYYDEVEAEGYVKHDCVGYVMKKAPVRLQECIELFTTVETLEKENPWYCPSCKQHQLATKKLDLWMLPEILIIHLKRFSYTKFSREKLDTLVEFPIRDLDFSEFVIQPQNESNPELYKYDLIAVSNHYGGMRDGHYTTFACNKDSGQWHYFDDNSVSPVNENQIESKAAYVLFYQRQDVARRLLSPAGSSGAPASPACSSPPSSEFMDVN
REPORTED METRIC: log2 ratio of Biotin-Ahx-Ub-VS probe labelling
One number for each entry.

[
  {
    "MOLECULE": "Cl.O=C(CCl)N1CC(c2ccc(Br)cn2)C1",
    "OBSERVED RESULT": -0.0636
  },
  {
    "MOLECULE": "COc1ccc(Cl)cc1NC(=O)CCl",
    "OBSERVED RESULT": -0.276
  },
  {
    "MOLECULE": "NC(=O)C1CCCCN1C(=O)CCl (centres undefined)",
    "OBSERVED RESULT": -0.0148
  }
]

List log2 ratio of Biotin-Ahx-Ub-VS probe labelling for every entry below, keeping the order given.
1. O=C(CCl)N1CCOCC1C1CC1 (centres undefined)
2. Cl.Cn1nc2c(c1CNC(=O)CCl)CCCC2
3. O=C(CCl)N1CCC(C(=O)N2CCCC2)CC1
4. O=C(O)C1Cc2ccccc2CN1C(=O)CCl (centres undefined)
5. O=C(CCl)Nc1cc(Cl)ccc1-n1cncn1
6. COc1cccc(CN(C)C(=O)CCl)c1
7. O=C(CCl)N1CCC(O)(Cc2ccc(F)cc2)C1 (centres undefined)
8. O=C(CCl)NCc1ccc(Cl)cc1

0.141
0.0528
-0.2
-0.0646
-0.871
-0.179
0.313
0.0262
